assay_remarks: NCI Yeast Anticancer Drug Screen. Data for the cln2 rad14 strain (AID 165)
measurement_parameters: S. cerevisiae cln2 rad14 strain, at 5.0 µM (retest, dose inferred, filed as 0.5)
About 79,000 compounds went through this panel and 15% of them were active in at least one assay; those are over-represented in the sample as a whole. Activity calls are given as the source filed them. No stated cut-off is given here; in the data, active means growth inhibition above about 70%; inactive means the rest.
Output constraint: value belongs to active, inactive

1. CC(Cc1ccccc1)N1C(=O)C=CC1=O (centres undefined)    active
2. COc1cc(Br)c(CC(NC=O)c2ccc3c(c2)OCO3)cc1OC (centres undefined)    inactive
3. O=C(Cc1nc2ccccc2s1)Nc1ccc2ccccc2c1    inactive

Below: the item to evaluate.
Lab log entry: CCCCc1c2c(nc3c1CC/C(=C\c1ccccc1)C3=O)CCCC2 — outcome as called in the assay?
inactive
